protocol: Primary qHTS for inhibitors of nuclear receptor binding SET domain protein 2 (NSD2) in an isogenic RCH-ACV NSD2 p.E1099K mutant (9B) (AID 1645876); note: nearly all actives have a fitted effect of over 70% in size; note: potency is the fitted concentration of half-maximal effect
particulars: RCH-ACV (leukaemia line) NSD2 E1099K (9B) viability, CellTiter-Glo, 72 h; series mostly up to 44.9 µM
Inconclusive results are not listed. Activity calls are given as the source filed them. Calls come from the whole dose curve; as a rule, active = well fitted inhibition curve with a large enough effect; inconclusive = small, poorly fitted or top-dose-only effect; inactive = flat fitted curve, though single readings scatter.
recordedMetric: Potency

| compound | result |
| --- | --- |
| C=C[C@H](/C=C\c1ccc(O)cc1)c1ccc(O)cc1 | 16.3 µM (active) |
| CCN(CC)C(=O)c1ccc(Nc2nc(OCC3CCCCC3)c3[nH]cnc3n2)cc1 | 3.65 µM (active) |
| CCc1c[nH]c2ncnc(N3CC[C@](N)(CNC(=O)c4ccc(F)cc4F)C3)c12 | 1.63 µM (active) |
| OC1(CN2CCC(COc3noc4cccc(O[C@@H]5CCOC5)c34)CC2)CCOCC1 | inactive |
| COC(=O)C[C@H]1[C@]2(C)C3=C(C)[C@H](c4ccoc4)C[C@H]3O[C@@H]2[C@H](O)C2[C@](C)(C(=O)OC)C=CC(=O)[C@@]21C (some centres not stated) | inactive |
| CC1(C)CCCC2(C)C1C(=O)C=C(C(=O)O)C2(O)C(=O)O (configuration not stated) | 25.8 µM (active) |
| C/C=C(/C)C(=O)OC1CC(C)(C)CC2C3=CCC4C5(C)CCC(O[C@@H]6O[C@H](C(=O)O)[C@@H](O)[C@H](O)[C@H]6O[C@@H]6O[C@H](CO)[C@H](O)[C@H](O[C@@H]7OC[C@H](O)[C@H](O)[C@H]7O[C@@H]7O[C@H](CO)[C@@H](O)[C@H](O)[C@H]7O)[C@H]6O)C(C)(C)C5CCC4(C)C3(C)C(O)C(O)C12CO (some centres not stated) | 2.18 µM (active) |
| CC[C@@H](C)[C@@H]1OC2(C=C[C@H]1C)C[C@@H]1C[C@H](C/C=C(\C)[C@H](O[C@H]3C[C@H](OC)[C@H](O[C@H]4C[C@H](OC)[C@H](NC(C)=O)[C@H](C)O4)[C@H](C)O3)[C@H](C)/C=C/C=C3\CO[C@H]4[C@H](O)C(C)=C[C@@H](C(=O)O1)[C@@]34O)O2 (some centres not stated) | 8.01 µM (active) |
| C[C@@H]1O[C@@H](O[C@H]2[C@H](OC(=O)[C@]34CCC(C)(C)C[C@H]3C3=CCC5[C@@]6(C)C[C@H](O)[C@H](O[C@@H]7O[C@H](CO)[C@@H](O)[C@H](O)[C@H]7O)[C@](CO)(C(=O)O)C6CC[C@@]5(C)[C@]3(C)C[C@H]4O)OC[C@H](O)[C@@H]2O)[C@H](O)[C@H](O)[C@H]1O[C@@H]1OC[C@@H](O)[C@H](O[C@@H]2OC[C@](O)(CO)[C@H]2O)[C@H]1O (some centres not stated) | 0.772 µM (active) |
| CC(C)S(=O)(=O)c1ccc2nccc(Nc3ccc4scnc4c3)c2c1 | 9.34 µM (active) |
| C=C(C)C(=O)O[C@H]1[C@H]2C(=C)C(=O)O[C@@H]2C[C@@H](C)[C@@H]2O[C@@H]2C(=O)[C@](C)(O)[C@@H]1OC(=O)C(=C)C | 1.78 µM (active) |
| CCCCNc1ncc(C(=O)NCc2ccc(-n3ccnc3)cc2)c(NC2CCC(O)CC2)n1 (configuration not stated) | 5.78 µM (active) |
